The reported numbers originate from patent US20060004029A1.

Molecular target: VEGFR2 (Homo sapiens, UniProt P35968)
Construct: coding for the cytoplasmic domain, beginning with lysine 791 and including the termination codon; made in house; host or cells: Sf9 insect cells, baculovirus (pFastBacHis)
Sequence (P35968 786-1356 limits assumed): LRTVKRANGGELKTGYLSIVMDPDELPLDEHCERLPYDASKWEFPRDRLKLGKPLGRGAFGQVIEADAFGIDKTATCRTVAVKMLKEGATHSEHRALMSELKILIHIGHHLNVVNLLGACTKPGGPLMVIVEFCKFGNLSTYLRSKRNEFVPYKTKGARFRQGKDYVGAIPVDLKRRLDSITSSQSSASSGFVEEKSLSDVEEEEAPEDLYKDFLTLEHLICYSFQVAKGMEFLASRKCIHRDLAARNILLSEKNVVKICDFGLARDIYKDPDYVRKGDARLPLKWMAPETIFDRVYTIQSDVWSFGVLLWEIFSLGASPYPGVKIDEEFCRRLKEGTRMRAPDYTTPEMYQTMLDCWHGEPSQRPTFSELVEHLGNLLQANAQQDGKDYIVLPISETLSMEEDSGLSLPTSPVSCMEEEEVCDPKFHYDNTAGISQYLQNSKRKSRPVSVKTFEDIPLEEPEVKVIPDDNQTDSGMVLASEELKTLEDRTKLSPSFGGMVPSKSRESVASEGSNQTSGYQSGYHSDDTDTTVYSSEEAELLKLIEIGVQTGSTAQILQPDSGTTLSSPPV
Assay: Inhibition against receptor tyrosine kinase activity (HTRF), VEGFR2
Format: biochemical
Conditions: His6-VEGFR2 cytoplasmic domain, biotin-poly(GT), HTRF; read-out: VEGFR2 kinase IC50
For each entry below, report its pIC50 value.
Answers are plain numbers, as −log10 of the molar value.

compound | result
CNC(=O)n1ccc2cc(Oc3ccnc(NC(=O)NCCCC(=O)N4CCC(C)(O)CC4)c3)ccc21 [Example 34] | 8.08

// each compound listed below needs its pIC50
1. CNC(=O)n1ccc2cc(Oc3ccnc(NC(=O)N4CCC(N5CCC5)CC4)c3)ccc21 [Example 210]
2. C#CCNC(=O)n1ccc2cc(Oc3ccnc(NC(=O)N4CCCC4)c3)ccc21 [Example 139]
3. CCN(CC)C1CCN(C(=O)Nc2cc(Oc3ccc4c(ccn4C(=O)NC)c3)ccn2)CC1 [Example 211]

Given back:
1: 8.09; 2: 8.20; 3: 7.35
